test.target: T1, MPP6, Q9NZW5
T1 sequence (Q9NZW5 125-219, limits assumed, looked up): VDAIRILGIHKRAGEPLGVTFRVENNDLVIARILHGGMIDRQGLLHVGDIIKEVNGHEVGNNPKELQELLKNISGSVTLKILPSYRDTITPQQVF
method.description: holdup assay
Parameters: key: below the threshold = too weak to quantify, mostly under pKd 3.1 to 4
condition.set: plain residues with an end cap or a label only (N-terminal biotin on a linker: ado-ado)
endpoint: pKd

• NTALVESEDL [PALLS, Q8WX93;Q8WX93-1] = below the threshold
• QKASRNESTF [POLR1D, P0DPB6] = below the threshold
• SKQFDKNAYV [CLDN10, P78369] = below the threshold
• NKSEPFLTWL [WWTR1, Q9GZV5] = 3.9
• HYPASPDSWV [CTNND2, Q9UQB3] = below the threshold
• FLVTEFNVML [DFNB31, Q9P202] = below the threshold
• SSSVNVSSNL [CXCR1, P25024] = below the threshold
• GTMFLRETSL [GUCY1A2, P33402] = below the threshold
• EKPIDSETKM [SLC1A3, P43003] = below the threshold
• QLKSGRDSTV [TMEM178A, Q8NBL3] = 3.8
• PGKKPEDSRV [SLCO2B1, O94956] = below the threshold
• SRPHTNETSL [MCC, P23508] = below the threshold
• KPDKQEEFYA [SDC3, O75056] = 3.77
• SAGADSETHC [SLCO1B1, Q9Y6L6] = 3.58
• EAVTVESTSL [SLC22A11, Q9NSA0] = 3.95
• VCMGDHWFDV [PRKN, O60260] = 4.01
• THREVKFTSL [CD46, P15529] = below the threshold
